- system.under.test: T1, Aβ40 (Homo sapiens, UniProt P05067)
- T1 construct: purchased AnaSpec; host or cells: synthetic peptide
- protocol.text: ThT fluorescence assay of Aβ monomer aggregation
- Format: biochemical
- experimental.context: 100 µM compound, 40 μM Aβ40 monomer; T2/T1 relative to control; mean ± SEM, n = 3–5; N.E. = not significantly different from control samples

# molecule, Lag Time Extension (Fold Increase)
records = [
    ("CN(C)Cc1ccc(CSCCN2C(=O)c3ccc([N+](=O)[O-])cc3C2=O)o1 [Compound 5]", "2.0 ± 0.6 fold"),
    ("CN(C)Cc1ccc(C[S+]([O-])CCN2C(=O)c3cccc4cc([N+](=O)[O-])cc(c34)C2=O)o1 (stereo not drawn) [Compound 13]", "N.E."),
    ("C[N+](C)([O-])Cc1ccc(CS(=O)(=O)CCN2C(=O)c3cccc4cc([N+](=O)[O-])cc(c34)C2=O)o1 [Compound 15]", "N.E."),
]
